The values you see were collected from patent US4647687A.

Quick reference: MIC of the listed items.
- System: Aspergillus niger
- assay notes: MIC against fungi, beerwort/peptone agar
- cond: 336 h, 28° C., 60 to 70% relative humidity, 2 weeks
experimental readout: MIC (µg/mL)

>>> endpoint_value("N#CC(Cl)=CSC(Cl)=C(Cl)C#N")
2
>>> endpoint_value("N#CC(Cl)=CS(=O)(=O)c1ccccc1 [α-Chloro-β-phenylsulphonyl-acrylonitrile, α-Chloro-β-phenylsulphonyl acrylonitrile, reference compound]")
50
>>> endpoint_value("N#CC(Cl)=C(Cl)SC(Cl)=C(Cl)C#N")
2

====

- Test system: Chaetomium globosum
- assay notes: MIC against fungi, beerwort/peptone agar
- cond: 336 h, 28° C., 60 to 70% relative humidity, 2 weeks
experimental readout: MIC (µg/mL)

>>> endpoint_value("N#CC(Cl)=CSC(Cl)=C(Cl)C#N")
2
>>> endpoint_value("N#CC(Cl)=C(Cl)SC(Cl)=C(Cl)C#N")
2
>>> endpoint_value("N#CC(Cl)=CS(=O)(=O)c1ccccc1 [α-Chloro-β-phenylsulphonyl-acrylonitrile, α-Chloro-β-phenylsulphonyl acrylonitrile, reference compound]")
50

====

- Test system: Eschercihia coli
- assay notes: Action against bacteria (MIC in broth agar)
- Type: cell-based
- cond: Escherichia coli, 336 h, 28° C., 60 to 70% relative humidity, 2 weeks, read-out: MIC
Quick reference: MIC of the listed items.
experimental readout: MIC (µg/mL)

>>> endpoint_value("N#CCCSC(Cl)=C(Cl)C#N")
200
>>> endpoint_value("N#CC(Cl)=CSC(Cl)=C(Cl)C#N")
20
>>> endpoint_value("N#CC(Cl)=C(Cl)SC(Cl)=C(Cl)C#N")
50
>>> endpoint_value("N#CC(Cl)=CS(=O)(=O)c1ccccc1 [α-Chloro-β-phenylsulphonyl-acrylonitrile, α-Chloro-β-phenylsulphonyl acrylonitrile, reference compound]")
200
